The reported measurements were obtained from patent US12655145B2.

Measured pIC50 by item
target: P2X3 (Homo sapiens, UniProt P56373); test: P2X3 Antagonist Assay (FLIPR calcium, Fluo-8, HEK293 cells transfected with human ion channel cDNAs, αβ-meATP stimulation); conditions: antagonist mode, αβ-meATP 3 μM
Sequence (P56373 whole entry): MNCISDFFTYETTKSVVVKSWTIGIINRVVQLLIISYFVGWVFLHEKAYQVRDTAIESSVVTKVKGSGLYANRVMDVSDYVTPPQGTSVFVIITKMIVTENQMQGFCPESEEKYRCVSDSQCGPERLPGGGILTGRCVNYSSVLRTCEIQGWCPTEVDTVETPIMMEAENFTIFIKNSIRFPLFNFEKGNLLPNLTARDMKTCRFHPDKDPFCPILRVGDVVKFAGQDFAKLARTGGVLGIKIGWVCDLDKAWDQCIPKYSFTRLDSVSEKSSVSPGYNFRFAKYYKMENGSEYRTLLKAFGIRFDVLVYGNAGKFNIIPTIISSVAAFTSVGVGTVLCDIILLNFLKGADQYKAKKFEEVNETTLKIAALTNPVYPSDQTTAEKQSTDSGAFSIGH
pIC50: −log10 of the molar value.
quantity name: pIC50

CNC(=O)c1ccc(-c2nc3cc(Cl)ccn3c2C[C@H]2CN(C(=O)OC)CCO2)c(F)c1 > 7.00
CNC(=O)c1cc(F)c(-c2nc3nc(C)ccn3c2C[C@H]2CN(C(=O)OC)CCO2)c(F)c1 > 7.00
CNC(=O)c1cc(C)c(-c2nc3cc(Cl)ccn3c2C[C@H]2CN(C(=O)OC)CCO2)cc1F > 7.00
CNC(=O)c1ccc(-c2nc3cc(Cl)ccn3c2C[C@H]2CN(C(=O)OC)CCO2)c(Cl)c1 > 7.00
CNC(=O)c1ccc(-c2nc3cc(S(C)(=O)=O)ccn3c2C[C@H]2CN(C(=O)OC)CCO2)c(F)c1 < 6.00
CNC(=O)c1cc(F)c(-c2nc3cc(C)ccn3c2C[C@H]2CN(C(=O)OC)CCO2)c(OC)c1F > 7.00
COC(=O)N1CCO[C@@H](Cc2c(-c3ccc(C(=O)N4CC[C@@H](O)C4)cc3F)nc3cc(Cl)ccn23)C1 < 6.00
